- Target under test: CYP2D6 (Homo sapiens)
- Construct: 0.2 mg/ml pooled human liver microsomes; from tissue; host or cells: pooled human liver microsomes
- Sequence (P10635 whole entry): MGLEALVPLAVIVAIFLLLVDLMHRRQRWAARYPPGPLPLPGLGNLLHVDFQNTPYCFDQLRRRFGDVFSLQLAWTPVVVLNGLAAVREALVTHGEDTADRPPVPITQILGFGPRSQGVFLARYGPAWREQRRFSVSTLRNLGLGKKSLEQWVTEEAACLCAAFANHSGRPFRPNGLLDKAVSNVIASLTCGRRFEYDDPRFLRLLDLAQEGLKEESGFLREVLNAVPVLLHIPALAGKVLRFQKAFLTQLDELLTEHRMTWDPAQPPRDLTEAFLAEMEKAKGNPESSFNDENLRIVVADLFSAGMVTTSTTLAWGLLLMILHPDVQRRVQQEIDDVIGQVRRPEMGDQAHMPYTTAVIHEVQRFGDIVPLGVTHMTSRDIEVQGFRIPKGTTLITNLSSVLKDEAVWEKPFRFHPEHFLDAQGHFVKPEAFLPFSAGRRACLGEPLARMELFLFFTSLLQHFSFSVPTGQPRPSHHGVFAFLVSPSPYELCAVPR
- Test protocol: CYP inhibition assay, CYP2D6
- Format: in vitro ADME
- Experimental parameters: human liver microsomes, dextromethorphan; read-out: CYP IC50 2D6
pIC50: −log10 of the molar value.
This listing pairs compounds with measured pIC50.

# example entries with known answers
| Smiles str | Target under test | Data value |
| --- | --- | --- |
| CC1(C)OC(N)=N[C@](C)(c2cc(NC(=O)c3ncc(C#N)cc3Cl)ccc2F)C1(F)F | CYP2D6 (Homo sapiens) | 5.00 to 6.00 |
| CC1(C)OC(N)=N[C@](C)(c2cc(NC(=O)c3ncc(C(F)(F)F)cc3Cl)ccc2F)C1(F)F | CYP2D6 (Homo sapiens) | 5.00 to 6.00 |
| C[C@]1(c2cc(NC(=O)c3ncc(Cl)cc3Cl)ccc2F)N=C(N)OCC1(F)F | CYP2D6 (Homo sapiens) | < 5.00 |

Alright, here's another compound for you.
Prompt: So what's the measured pIC50 for this one? "C[C@]1(c2cc(NC(=O)c3ccc(Cl)cn3)ccc2F)N=C(N)OCC1(F)F"
Response: 5.00 to 6.00

Values from patent US8389513B2
